Target: 2-5A-dependent ribonuclease (Mus musculus)
Sequence (whole entry): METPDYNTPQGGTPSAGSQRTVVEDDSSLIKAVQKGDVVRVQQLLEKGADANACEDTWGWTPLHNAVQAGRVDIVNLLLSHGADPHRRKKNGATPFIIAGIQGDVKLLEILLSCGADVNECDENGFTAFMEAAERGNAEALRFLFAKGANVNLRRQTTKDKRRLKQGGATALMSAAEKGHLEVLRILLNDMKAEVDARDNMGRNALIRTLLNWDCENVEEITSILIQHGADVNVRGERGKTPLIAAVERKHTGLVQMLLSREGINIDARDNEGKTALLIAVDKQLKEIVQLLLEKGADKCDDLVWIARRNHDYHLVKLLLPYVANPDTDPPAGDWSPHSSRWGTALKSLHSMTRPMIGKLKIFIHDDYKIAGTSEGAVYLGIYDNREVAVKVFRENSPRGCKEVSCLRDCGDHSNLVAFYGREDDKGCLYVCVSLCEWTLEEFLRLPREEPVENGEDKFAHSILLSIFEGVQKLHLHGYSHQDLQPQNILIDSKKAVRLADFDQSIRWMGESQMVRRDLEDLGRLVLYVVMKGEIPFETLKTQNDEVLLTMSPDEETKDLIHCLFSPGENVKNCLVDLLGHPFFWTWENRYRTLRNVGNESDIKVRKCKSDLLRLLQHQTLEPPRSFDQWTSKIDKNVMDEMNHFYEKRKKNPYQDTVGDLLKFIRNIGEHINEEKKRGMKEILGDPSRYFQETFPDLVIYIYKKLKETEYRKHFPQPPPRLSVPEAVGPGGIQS
Test: Relative displacement of [125I]-labeled 2-5A from Ribonuclease L of mouse liver compared to pApApA
Reported Relative activity values follow for various compounds

These recorded examples may help you get a feel for the data.
{"columns": ["COMPOUND", "Relative activity"],
 "data": [
  ["[N-]=[N+]=Nc1nc2c(N)ncnc2n1C1O[C@H](COP(=O)(O)O[C@H]2C(n3c(N=[N+]=[N-])nc4c(N)ncnc43)OC(COP(=O)(O)O[C@H]3C(n4c(N=[N+]=[N-])nc5c(N)ncnc54)O[C@H](CO)[C@H]3O)[C@H]2O)[C@@H](O)[C@H]1O (stereo partly drawn)", 0.6],
  ["Nc1ncnc2c1nc(N)n2[C@@H]1O[C@H](COP(=O)(O)O[C@@H]2[C@H](O)[C@@H](COP(=O)(O)O[C@@H]3[C@H](O)[C@@H](CO)O[C@H]3n3c(N)nc4c(N)ncnc43)O[C@H]2n2c(N)nc3c(N)ncnc32)[C@@H](O)[C@H]1O", "< 0.0004"],
  ["[N-]=[N+]=Nc1nc2c(N)ncnc2n1C1O[C@H](COP(=O)(O)O[C@H]2C(n3c(N=[N+]=[N-])nc4c(N)ncnc43)O[C@H](CO)[C@H]2O)[C@@H](O)[C@H]1O (stereo partly drawn)", "< 0.0004"],
  ["[N-]=[N+]=Nc1nc2c(N)ncnc2n1C1O[C@H](COP(=O)(O)O[C@H]2C(n3c(N=[N+]=[N-])nc4c(N)ncnc43)O[C@H](COP(=O)(O)O)[C@H]2O)[C@@H](O)[C@H]1O (stereo partly drawn)", 0.0008],
  ["[N-]=[N+]=Nc1nc2c(N)ncnc2n1[C@@H]1O[C@H](COP(=O)(O)O[C@@H]2[C@H](O)[C@@H](COP(=O)(O)O[C@@H]3[C@H](O)[C@@H](COP(=O)(O)O[C@@H]4[C@H](O)[C@@H](COP(=O)(O)O)O[C@H]4n4c(N=[N+]=[N-])nc5c(N)ncnc54)O[C@H]3n3c(N=[N+]=[N-])nc4c(N)ncnc43)O[C@H]2n2c(N=[N+]=[N-])nc3c(N)ncnc32)[C@@H](O)[C@H]1O", 2]
]}

Input: For Nc1ncnc2c1nc(N)n2C1O[C@H](COP(=O)(O)O[C@H]2C(n3c(N)nc4c(N)ncnc43)O[C@H](CO)[C@H]2O)[C@@H](O)[C@H]1O (stereo partly drawn) , what is its reported Relative activity?
Output: < 0.0004

Input: Recorded Relative activity of `Nc1ncnc2c1ncn2[C@@H]1O[C@H](COP(=O)(O)O[C@@H]2[C@H](O)[C@@H](COP(=O)(O)O[C@@H]3[C@H](O)[C@@H](COP(=O)(O)OP(=O)(O)OP(=O)(O)O)O[C@H]3n3cnc4c(N)ncnc43)O[C@H]2n2cnc3c(N)ncnc32)[C@@H](O)[C@H]1O` , please.
Output: 1.3

Input: What measured Relative activity goes with `Nc1ncnc2c1nc(N)n2[C@@H]1O[C@H](COP(=O)(O)O[C@@H]2[C@H](O)[C@@H](COP(=O)(O)O[C@@H]3[C@H](O)[C@@H](COP(=O)(O)O[C@@H]4[C@H](O)[C@@H](CO)O[C@H]4n4c(N)nc5c(N)ncnc54)O[C@H]3n3c(N)nc4c(N)ncnc43)O[C@H]2n2c(N)nc3c(N)ncnc32)[C@@H](O)[C@H]1O` ?
Output: 0.004

Input: Please report the recorded Relative activity for Nc1ncnc2c1nc(N)n2C1O[C@H](COP(=O)(O)O[C@H]2C(n3c(N)nc4c(N)ncnc43)O[C@H](COP(=O)(O)O)[C@H]2O)[C@@H](O)[C@H]1O (stereo partly drawn) .
Output: < 0.0004

Input: Give the measured Relative activity of `Nc1ncnc2c1nc(N)n2[C@@H]1O[C@H](COP(=O)(O)O[C@@H]2[C@H](O)[C@@H](COP(=O)(O)O[C@@H]3[C@H](O)[C@@H](COP(=O)(O)O)O[C@H]3n3c(N)nc4c(N)ncnc43)O[C@H]2n2c(N)nc3c(N)ncnc32)[C@@H](O)[C@H]1O` .
Output: < 0.0004

Input: Which measured Relative activity value corresponds to Nc1ncnc2c1nc(N)n2C1O[C@H](COP(=O)(O)O[C@H]2C(n3c(N)nc4c(N)ncnc43)O[C@H](COP(=O)(O)O[C@H]3C(n4c(N)nc5c(N)ncnc54)O[C@H](COP(=O)(O)O[C@H]4C(n5c(N)nc6c(N)ncnc65)O[C@H](COP(=O)(O)O)[C@H]4O)[C@H]3O)[C@H]2O)[C@@H](O)[C@H]1O (stereo partly drawn) ?
Output: 0.008

Input: Entry `[N-]=[N+]=Nc1nc2c(N)ncnc2n1[C@@H]1O[C@H](COP(=O)(O)O[C@@H]2[C@H](O)[C@@H](COP(=O)(O)O[C@@H]3[C@H](O)[C@@H](COP(=O)(O)O[C@@H]4[C@H](O)[C@@H](CO)O[C@H]4n4c(N=[N+]=[N-])nc5c(N)ncnc54)O[C@H]3n3c(N=[N+]=[N-])nc4c(N)ncnc43)O[C@H]2n2c(N=[N+]=[N-])nc3c(N)ncnc32)[C@@H](O)[C@H]1O` has what Relative activity?
Output: 0.8

Input: // Relative activity lookup, key: [N-]=[N+]=Nc1nc2c(N)ncnc2n1C1OC(COP(=O)(O)O)C(O)C1OP(=O)(O)OCC1OC(n2c(N=[N+]=[N-])nc3c(N)ncnc32)C(OP(=O)(O)OC[C@H]2OC(n3c(N=[N+]=[N-])nc4c(N)ncnc43)[C@H](O)[C@@H]2O)C1O (stereo partly drawn)
Output: 2
